Entries annotated with measured Kd
target: T1, Human TMPRSS2 recombinant protein, extracellular region (N-terminal His tag, C-terminal Strep-tag II) (human, UniProt O15393 106-492); assay: SPR (BIAcore); rounded repeat of Table 1
T1 construct: also called Human TMPRSS2 recombinant proteins; extracellular region of human TMPRSS2
T1 sequence (O15393 other isoform, or with tags, fused parts or gaps limits assumed): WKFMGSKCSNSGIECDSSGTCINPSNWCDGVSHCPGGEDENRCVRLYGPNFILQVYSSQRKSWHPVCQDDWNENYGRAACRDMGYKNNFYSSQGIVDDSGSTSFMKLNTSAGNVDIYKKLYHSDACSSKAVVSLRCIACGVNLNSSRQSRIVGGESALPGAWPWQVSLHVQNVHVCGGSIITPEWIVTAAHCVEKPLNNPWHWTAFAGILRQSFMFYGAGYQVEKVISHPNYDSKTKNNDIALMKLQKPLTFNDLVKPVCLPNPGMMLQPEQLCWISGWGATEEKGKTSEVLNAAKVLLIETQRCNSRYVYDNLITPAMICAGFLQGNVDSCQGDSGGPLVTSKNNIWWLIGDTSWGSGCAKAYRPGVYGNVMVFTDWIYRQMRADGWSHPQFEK
Property: Kd

# Binder, Property, Result
data = [
    ("1864_10 antibody (antibody, V domains shown) VH: QVQLQQSGPALVKPGASLKISCEASGYTFTYYSINWVKQRPGQGLEWIGWIFPGSGSTYYNEKFKGKATLTIDKSSSTAYMLLSSLTSEDSAVYFCARSDYGSAYGYFDVWGTGTTVTVSS VL: DIVLTQSPASLAVSLGQRATISCRASKSVSTSGYSYMHWYQQKPGQPPKLLIYLASNLESGVPARFSGSGSGTDFTLNIHPVEEEDAATYYCQHSRDLPLTFGAGTKLELK", "Kd", "5.1 nM"),
    ("2020_12 antibody (antibody, V domains shown) VH: QVQLQQPGAELAKPGASVKLSCKASGYTFTSYWMHWVKQRPGQGLEWIGLIPPNSGSSNYNEKFKSKATLTVDKSSRTAYMQLSSLTSEDSAVYYCARWDYGSSYGYFDVWGTGTTVTVSS VL: DIVLTQSPASLAVSLGQRATISCRASESVSTSGYSYMHWYQQKPGQPPKLLIYLASNLESGVPVRFSGSGSGTDFTLNIHPVEEEDAATYYCQHSRELPPTFGAGTKLELK", "Kd", "2.7 nM"),
    ("1831_15 antibody (antibody, V domains shown) VH: QVQLQQPGAELVKPGASVKLSCKASGYSFTTYWMHWVRQRPGQGLEWIGIIHPNSGTTNYNEKFKSKASLTVDKSSSTAYMQLSSLTSEDSAVYYCARLLWDYFDYWGQGTTLTVSS VL: DIVMSQSPSSLAVSAGEKVTMSCKSSQSLLNSRTRKNFLAWYQQKPGQSPKLLIYWASTRESGVPDRFTGSGSGTDFTLTISSVQAEDLAVYYCKQSYNLYTFGGGTKLEIK", "Kd", "0.42 nM"),
    ("2228_15 antibody (antibody, V domains shown) VH: QVQLQQSGPELVKPGTSVKISCKASGYTFTDYYINWVKQRPGQGLEWIGWIFPGSGSSYYNAIFKGKATLTVDTSSNTAHMSLSSLTSDDSAVYFCARGDFGNFGGFFTYWGQGTLVTVSA VL: DVVVTQSPASLAVSLGQRATISCRASKSVSTSGYSFMHWYQQKPGQPPKLLIYLASNLESGVPARFSGSGSGTDFILNIHPVEEEDAATYYCQHSRELPLTFGAGTKLELK", "Kd", "8.4 nM"),
]
